Target: DNA-PK (Homo sapiens)
Test: DNA-PK inhibition assay (ELISA, phosphorylation of GST-p53N66)
Format: biochemical, Mammalian (isolated from HeLa cell nuclear extract)
Settings: IC50 (mean IC50 of the compounds), mean; DNA-PK from HeLa nuclear extract, 50 μM ATP
pIC50: −log10 of the molar value.
Outcome measure: pIC50

Worked set:
>  <Compound>
CCN1CCN(c2ccc(-c3cccc4c(=O)cc(N5CCOCC5)oc34)c3sc4ccccc4c23)CC1

>  <System>
DNA-PK (Homo sapiens)

>  <pIC50>
8.10

$$$$
>  <Compound>
COC1CCN(c2ccc(-c3cccc4c(=O)cc(N5CCOCC5)oc34)c3sc4ccccc4c23)CC1

>  <System>
DNA-PK (Homo sapiens)

>  <pIC50>
6.76

$$$$
>  <Compound>
CC(C)(C)OC(=O)N1CCN(c2ccc(-c3cccc4c(=O)cc(N5CCOCC5)oc34)c3sc4ccccc4c23)CC1

>  <System>
DNA-PK (Homo sapiens)

>  <pIC50>
6.35

$$$$
>  <Compound>
CC(C)N1CCN(c2ccc(-c3cccc4c(=O)cc(N5CCOCC5)oc34)c3sc4ccccc4c23)CC1

>  <System>
DNA-PK (Homo sapiens)

>  <pIC50>
7.77

$$$$
>  <Compound>
O=c1cc(N2CCOCC2)oc2c(-c3ccc(N4CCNCC4)c4c3sc3ccccc34)cccc12

>  <System>
DNA-PK (Homo sapiens)

>  <pIC50>
7.96

$$$$

[I] CC1CN(c2ccc(-c3cccc4c(=O)cc(N5CCOCC5)oc34)c3sc4ccccc4c23)CC(C)N1 (centres unmarked)
[II] CC(=O)N1CCN(c2ccc(-c3cccc4c(=O)cc(N5CCOCC5)oc34)c3sc4ccccc4c23)CC1
Enquiry: Recorded pIC50 values differ for I and II ; which one is higher? Kindly state the label of the option you pick.
Return: I
(I: 7.92, II: 7.51)

[1] CN(C)C1CCN(c2ccc(-c3cccc4c(=O)cc(N5CCOCC5)oc34)c3sc4ccccc4c23)CC1
[2] O=c1cc(N2CCOCC2)oc2c(-c3ccc(N4CCN(CCOCCO)CC4)c4c3sc3ccccc34)cccc12
Enquiry: Between the two listed entries 1 and 2 , which has its pIC50 at the higher number? Let me know the label of the one you choose.
Return: 2

[P] O=C(C1CCCO1)N1CCN(c2ccc(-c3cccc4c(=O)cc(N5CCOCC5)oc34)c3sc4ccccc4c23)CC1 (centres unmarked)
[Q] O=c1cc(N2CCOCC2)oc2c(-c3ccc(N4CCCC(F)C4)c4c3sc3ccccc34)cccc12 (centres unmarked)
[R] CCOC1CCN(c2ccc(-c3cccc4c(=O)cc(N5CCOCC5)oc34)c3sc4ccccc4c23)CC1
Enquiry: Put the entries in order of pIC50, starting with the largest number. Use the labels to give the requested order.
Return: P, Q, R

[1] CC(C)(C)OC(=O)N1CCCN(c2ccc(-c3cccc4c(=O)cc(N5CCOCC5)oc34)c3sc4ccccc4c23)CC1
[2] O=c1cc(N2CCOCC2)oc2c(-c3ccc(N4CCC(N5CCOCC5)CC4)c4c3sc3ccccc34)cccc12
Enquiry: Hey, which is lower on measured pIC50, 1 or 2 ? Please identify the chosen entry by its label.
Return: 1
(1: 7.07, 2: 7.62)
